Where do these numbers come from? They come from PubChem BioAssay (NCI).

Measured growth inhibition, listed per entry.
# Measurement description: NCI Yeast Anticancer Drug Screen. Data for the mlh1 rad18 strain (AID 175)
# Measurement conditions: S. cerevisiae mlh1 rad18 strain growth inhibition; at 50.0 µM; hits give high values
About 79,000 compounds went through this panel and 15% of them were active in at least one assay; those are over-represented in the sample as a whole.
The figure you give is taken to be in %; do not add the unit.

> print(dat)
                                   compound  units.of.measure  observed.measurement
1  C/C(=N/N(C=O)C[n+]1ccccc1)C(CN(CC(C)C)CC(C)C)C(=O)Nc1ccc(C)cc1C (stereo unspecified)                 %                  19.9

// growth inhibition lookup, compound = O=C1C2C3CCC(O3)C2C(=O)N1c1ccccn1 (stereo unspecified) , result: 0.2

Per the records, this compound ( `CCOC(=O)CC(=O)Nc1cccc2sc3ncccc3c(=O)c12` ) has growth inhibition equal to 0.2

Form field growth inhibition, entry `C[N+](C)(C)CC(=O)N/N=C(/Cc1nc2c3c(ccc2[nH]c1=O)C(=O)c1ccccc1C3=O)C(=O)Nc1ccc(Cl)c(Cl)c1` : 30.9

Recorded growth inhibition (compound CCOC1OCCCC1C(OCC)C(C)C (stereo unspecified) ): 12.4

Per the record, `CCCCn1c(=S)[nH]c2c(=O)n(C)c(=O)n(C)c21` has growth inhibition of 4
